Exercise: for every item that follows, state its recorded SPOT peptide array binding signal intensity.
# study_target: ScMyo5
# assay_summary: SPOT peptide array binding signal intensity (averaged, normalized) (arbitrary units (background-subtracted, floor 0; scale differs between SH3 domains)); higher = stronger binding of the SH3 domain to the peptide
Give bare numbers.

Below are worked cases with known answers.
# binder, endpoint_value
rows = [
    ("ERPKRRAPPPVPKKP", 959),
    ("APKREAPKPPANTSP", 414),
    ("APPLPPTAPPPPSLP", 3170),
]

API: the following record is the query input.
Would you kindly share the measured SPOT peptide array binding signal intensity for YHSRRHPLALGFKYV ?
24.2
